Value source: patent US7501431B2

Molecular target: histamine H3 receptor (Rattus norvegicus)
Construct: Rat fore-brain was homogenized in 10 volumes of 0.32 M sucrose solution; from tissue; host or cells: rat fore-brain membrane fraction
Sequence (Q9QYN8 whole entry): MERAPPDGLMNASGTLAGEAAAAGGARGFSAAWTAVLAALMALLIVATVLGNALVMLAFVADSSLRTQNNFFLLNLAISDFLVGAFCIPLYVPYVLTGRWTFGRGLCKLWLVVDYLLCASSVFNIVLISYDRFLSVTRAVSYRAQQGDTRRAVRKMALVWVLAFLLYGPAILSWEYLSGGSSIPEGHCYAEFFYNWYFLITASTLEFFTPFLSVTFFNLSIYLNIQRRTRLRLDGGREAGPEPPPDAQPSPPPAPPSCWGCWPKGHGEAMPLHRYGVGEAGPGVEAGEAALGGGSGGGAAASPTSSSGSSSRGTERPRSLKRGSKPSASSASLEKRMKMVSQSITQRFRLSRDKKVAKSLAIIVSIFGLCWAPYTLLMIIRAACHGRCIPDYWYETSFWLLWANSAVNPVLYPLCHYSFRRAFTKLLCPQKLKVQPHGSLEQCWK
Experiment: N^α-methylhistamine binding inhibition test ([3H]N^α-methylhistamine, rat fore-brain membrane fraction)
Experimental: The PF1270A, B and C substances obtained by the invention have affinity for histamine H3 receptor. […] The binding inhibition test was carried out using the thus obtained membrane fraction and a radioactive ligand [^3H]N^α-methylhistamine (manufactured by Perkin-Elmer Life Science). […] After drying at 50° C. for 1 hour, 30 μl of Microscinti-20 (manufactured by Perkin-Elmer) was added thereto as the scintillator, and the radioactivity was counted using Top Count (manufactured by Perkin-Elmer). […]
measured-property: pIC50
// pIC50 here means minus log10 of the molar concentration (mol/L)

Query :: Which value of pIC50 has been reported for CCCC(=O)OC1CC(C)N2CC3(NC)CC4(C(=O)Nc5c(C(=O)C6OC6(C)C)cccc54)C(C)(C=O)C3CC2C1 (stereo not shown) [PF1270A] in the records?
Result :: 7.08
